Target: Chromo domain-containing protein 1 (Saccharomyces cerevisiae (strain ATCC 204508 / S288c) (Baker's yeast)) (UniProt P32657)
Sequence (P32657 whole entry, the tested form may be a part): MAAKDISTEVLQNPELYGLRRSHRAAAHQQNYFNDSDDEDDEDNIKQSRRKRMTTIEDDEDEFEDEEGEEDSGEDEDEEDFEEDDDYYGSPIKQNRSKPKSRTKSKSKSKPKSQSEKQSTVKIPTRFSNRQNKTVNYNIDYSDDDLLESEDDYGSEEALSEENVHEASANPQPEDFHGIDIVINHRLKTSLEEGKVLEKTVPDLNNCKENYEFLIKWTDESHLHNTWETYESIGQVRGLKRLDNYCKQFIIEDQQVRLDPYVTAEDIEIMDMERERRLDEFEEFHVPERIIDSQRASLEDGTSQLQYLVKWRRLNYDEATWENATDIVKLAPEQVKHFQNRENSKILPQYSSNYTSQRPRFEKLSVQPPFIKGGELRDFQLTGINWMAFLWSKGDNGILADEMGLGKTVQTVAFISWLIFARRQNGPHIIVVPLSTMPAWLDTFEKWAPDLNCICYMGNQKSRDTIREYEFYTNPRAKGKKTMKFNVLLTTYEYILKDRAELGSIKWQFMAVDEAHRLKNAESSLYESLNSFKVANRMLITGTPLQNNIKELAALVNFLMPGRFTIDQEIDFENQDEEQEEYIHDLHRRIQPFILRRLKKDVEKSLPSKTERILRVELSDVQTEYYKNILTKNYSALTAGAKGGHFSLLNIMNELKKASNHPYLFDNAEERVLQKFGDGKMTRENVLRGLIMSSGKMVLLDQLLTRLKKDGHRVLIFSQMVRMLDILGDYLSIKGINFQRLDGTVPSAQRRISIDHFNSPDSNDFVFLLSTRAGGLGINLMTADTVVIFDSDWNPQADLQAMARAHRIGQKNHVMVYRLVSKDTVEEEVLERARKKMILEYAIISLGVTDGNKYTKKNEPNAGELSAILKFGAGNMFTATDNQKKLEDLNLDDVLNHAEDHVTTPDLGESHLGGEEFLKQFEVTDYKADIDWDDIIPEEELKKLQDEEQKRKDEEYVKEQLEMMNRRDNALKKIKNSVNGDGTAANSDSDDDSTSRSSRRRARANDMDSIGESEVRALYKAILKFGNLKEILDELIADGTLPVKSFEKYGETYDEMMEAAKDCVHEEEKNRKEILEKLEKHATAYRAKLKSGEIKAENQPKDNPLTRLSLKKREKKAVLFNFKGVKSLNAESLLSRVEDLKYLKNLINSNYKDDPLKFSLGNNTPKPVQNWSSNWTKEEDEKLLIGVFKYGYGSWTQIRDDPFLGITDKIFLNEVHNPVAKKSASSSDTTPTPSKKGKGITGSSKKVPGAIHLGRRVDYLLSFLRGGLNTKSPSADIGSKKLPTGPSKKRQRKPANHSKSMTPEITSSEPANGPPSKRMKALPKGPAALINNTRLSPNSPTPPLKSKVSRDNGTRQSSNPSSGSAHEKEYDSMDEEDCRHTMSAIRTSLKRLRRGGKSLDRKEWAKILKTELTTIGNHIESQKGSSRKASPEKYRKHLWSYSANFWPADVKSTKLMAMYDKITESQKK
Assay: ScCHD-1 Enzyme Inhibition Assay; also: in the data most compounds retested in dose-response had high values
Assay type: functional
Design: scale not given: direction of the effect not stated beside the values
Conditions: 30 µM
measure.name: Percent Effect (%)
Answer with a number only, understood to be in %.

Solved entries:
molecule	scale.unit	Percent Effect
Cc1ccc2c(c1)CN(C(=O)c1ccccc1F)C(CN(C)C)CO2 (stereo unspecified)	%	-10
Cc1nc(NC2CCCC2)cc(C2CCN2C(=O)c2ccccc2)n1 (stereo unspecified)	%	-22.1
Cc1noc(C)c1C(=O)N1CC[C@H]2C[C@@H](c3nccs3)O[C@@H]2C1	%	-3.15

Q. Provide Percent Effect value for the following molecule: O=C1CC(c2ccncc2)C2(CCN(CCO)CC2)N1 (stereo unspecified)
A. 17.5

Q. Provide Percent Effect value for the following molecule: CC(Cn1cccn1)NC(=O)NCc1ccc(S(N)(=O)=O)cc1 (stereo unspecified)
A. -18.9

Q. Provide Percent Effect value for the following molecule: Cc1ccc(N2CC[C@H]3O[C@@H](C(=O)NCc4ccco4)CC[C@H]32)nn1
A. -1.01

Q. Provide Percent Effect value for the following molecule: COc1ccccc1OCCN1CCCC(c2cc(C(N)=O)[nH]n2)C1 (stereo unspecified)
A. -8.44

Q. Provide Percent Effect value for the following molecule: Cc1nc([C@@H]2C[C@@H]3CCN(C(=O)c4ccnnc4)C[C@H]3O2)sc1C
A. -7.55

###

The following compounds are shown together with reported Percent Effect values.
Biological target: Chromo domain-containing protein 1 (Saccharomyces cerevisiae (strain ATCC 204508 / S288c) (Baker's yeast))
Experiment: ScCHD-1 Enzyme Inhibition Assay; also: in the data most compounds retested in dose-response had high values
Assay type: functional
Design: scale not given: direction of the effect not stated beside the values
Conditions: 30 µM
Answer with a number only, understood to be in %.

compound	observed.measurement
COc1cccc(C(=O)NS(=O)(=O)c2cccc(C#N)c2)c1OC	3.98

Q. Provide Percent Effect value for the following compound: Cc1cccc(CN2CCC3(CCN(Cc4ccccn4)C3)C2=O)c1 (stereo not given)
A. -12.5

Q. Provide Percent Effect value for the following compound: O=C(NCc1cc[nH]n1)N1CCCCC(N2CCCC2)C1 (stereo not given)
A. 3.8

Q. Provide Percent Effect value for the following compound: O=C(NCCNc1ncccn1)C1CCN(CC(F)(F)F)CC1
A. -4.74

Q. Provide Percent Effect value for the following compound: Cc1[nH]c(=O)c(C#N)cc1C(=O)N1C[C@@H](CN2CCCC2)C[C@H](CO)C1
A. 2.93

###

The following molecules are shown together with reported Percent Effect values.
Biological target: Proteasome subunit beta (Trypanosoma cruzi)
Assay: Trypanosoma cruzi proteasome chymotrypsin-like activity (TcProtChymo) assay. Also: in the data most compounds retested in dose-response had high values.
Assay type: functional
Parameters: scale not given: direction of the effect not stated beside the values
Details: 9.37 µM
Answer with a number only, understood to be in %.

molecule	observed.measurement
CC(=O)NC1CCCN(C(=O)NCc2cccnc2N(C)C)C1 (stereo not drawn)	11.4
Cc1cc(C(=O)O)cc(S(=O)(=O)Nc2ccc3c(c2)OCO3)c1C	19.7
COc1c(C2CCCN2Cc2c(C)noc2C)c(C)nn1C (stereo not drawn)	6.19
Cc1ccc(CN2CCc3ncnc(-c4ccc(F)cc4)c3CC2)o1	12.5
COCCC(=O)N1CC2(CCN(Cc3cccc(Cl)c3)CC2)C1	10.8
CC(C)C(C)NC(=O)Nc1ccccc1CN1CCOCC1 (stereo not drawn)	2.66
Cc1cnc(C(=O)N(CCN(C)C)Cc2ccc(Cl)cc2)cn1	15.3
CC(C)(C)NC(=O)C1CSCN1S(=O)(=O)c1ccc(F)cc1 (stereo not drawn)	15.4
Cc1cccc(OCCC(=O)N2CCCN(C(N)=O)CC2)c1C	3.85
CN1CCc2c(C#N)c(NCc3ccco3)n3cnnc3c2C1	14.5

Q. # assay system Proteasome subunit beta (Trypanosoma cruzi): give Percent Effect of Cc1nn(C)c(C)c1C1COCCN1C(=O)Cc1cccc(F)c1 (stereo not drawn)
A. 17.6

Q. # assay system Proteasome subunit beta (Trypanosoma cruzi): give Percent Effect of Cc1noc(C)c1CCC(=O)NC(C)c1nnc2n1CCC2 (stereo not drawn)
A. 5.24

Q. # assay system Proteasome subunit beta (Trypanosoma cruzi): give Percent Effect of CS(=O)(=O)NCC1CCCN(C(=O)c2cc3ccccc3o2)C1 (stereo not drawn)
A. 15.1

###

Target: Tyrosyl-tRNA synthetase, putative (Trypanosoma cruzi (strain CL Brener)) (UniProt Q4DSP6)
Sequence (Q4DSP6 as listed by the source): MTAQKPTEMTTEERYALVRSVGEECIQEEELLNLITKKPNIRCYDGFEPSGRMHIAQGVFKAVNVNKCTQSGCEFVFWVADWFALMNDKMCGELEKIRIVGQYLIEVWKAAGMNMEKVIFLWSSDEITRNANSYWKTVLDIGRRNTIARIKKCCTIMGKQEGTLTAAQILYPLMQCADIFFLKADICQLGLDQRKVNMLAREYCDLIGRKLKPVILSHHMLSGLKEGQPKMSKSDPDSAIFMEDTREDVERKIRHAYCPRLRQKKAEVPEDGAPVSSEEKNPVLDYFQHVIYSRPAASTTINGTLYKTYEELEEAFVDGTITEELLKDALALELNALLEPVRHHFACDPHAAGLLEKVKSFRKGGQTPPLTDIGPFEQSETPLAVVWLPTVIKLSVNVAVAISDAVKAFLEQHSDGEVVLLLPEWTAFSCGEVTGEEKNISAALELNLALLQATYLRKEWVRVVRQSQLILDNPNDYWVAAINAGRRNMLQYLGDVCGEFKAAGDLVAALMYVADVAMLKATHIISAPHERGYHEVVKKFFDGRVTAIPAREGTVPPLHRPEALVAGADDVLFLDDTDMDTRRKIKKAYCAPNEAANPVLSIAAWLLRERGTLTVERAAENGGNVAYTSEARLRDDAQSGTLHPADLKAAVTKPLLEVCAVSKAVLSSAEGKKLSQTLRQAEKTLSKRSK
Experiment: Trypanosoma cruzi tyrosyl tRNA synthetase (TcYRS) _High Tyrosine SOP; also: in the data most compounds retested in dose-response had high values
Format: functional
Set-up: scale not given: direction of the effect not stated beside the values
Conditions: 30 µM
The following compounds are shown together with reported Percent Effect values.
Answer with a number only, understood to be in %.

Q. Provide Percent Effect value for the following compound: c1cnn(Cc2nnc3n2CCCN(CC2CCOCC2)C3)c1
A. -0.526

Q. Provide Percent Effect value for the following compound: O=C(c1cscn1)N1CCC2(CCN(Cc3nccs3)C2)CC1
A. 1.08

Q. Provide Percent Effect value for the following compound: Cn1cc(NC(=O)N2CCC(NS(C)(=O)=O)CC2)ccc1=O
A. -9.09

Q. Provide Percent Effect value for the following compound: COC(=O)CN(C)C1CCc2ccccc21 (stereo not drawn)
A. 7.35

Q. Provide Percent Effect value for the following compound: OC(CN1CCN(Cc2ccc(F)cc2)CC1)C1CC1 (stereo not drawn)
A. 6.45

###

The following molecules are shown together with reported Percent Effect values.
Target: Protein translocase subunit SecA (Escherichia coli (strain K12))
Experiment: Assay to Identify E. coli SecA ATPase Inhibitors
Format: functional
Design: scale not given: direction of the effect not stated beside the values
Settings: 30 µM
Measured potencies and affinities stand elsewhere.
Answer with a number only, understood to be in %.

molecule	measure.name	observed.measurement
Cc1nc(CN2CCN(Cc3ccoc3)Cc3cccnc32)cs1	Percent Effect	-1.42
O=C(NCCN1CCCCC1)c1ccoc1	Percent Effect	-6.92
COC(=O)CC(c1ccc(OC)c(OC)c1)c1oc(C)cc(=O)c1O (stereo not given)	Percent Effect	-11
COc1ccc(CN2CC[C@H]3[C@H]2CCN3C(=O)c2cnn(C)c2)cc1	Percent Effect	-0.777
Cc1nc(C2CCCN2Cc2ncc(C(C)C)o2)no1 (stereo not given)	Percent Effect	-0.503

Proceeding to the next molecule to report its Percent Effect.
Q. Provide Percent Effect value for the following molecule: CCOC1CCCN(C(=O)NCCc2ccn(-c3ccccc3)n2)C1 (stereo not given)
A. -2.03

###

Organism: Homo sapiens
Test: To identify inhibition of the IFN signalling (Jak-Stat) pathway via expression of an eGFP reporter gene under the control of an IFN-stimulated response element (ISRE) containing MxA promoter.
Assay type: functional
Parameters: scale not given: direction of the effect not stated beside the values
Conditions: 30 µM
measure.name: Percent Effect (%)
Answer with a number only, understood to be in %.

Solved entries:
compound	observed.measurement
Cc1cccc(CN2CCC3(CCN(Cc4ccccn4)C3)C2=O)c1 (stereo not given)	19
Cc1nn(CC(=O)N2CCN(c3ccccc3F)CC2)c(C)c1Cl	9.79
c1cnn(CCNCc2csc(-c3ccsc3)n2)c1	24.6
CN(Cc1nc2c(cnn2C)c(=O)[nH]1)Cc1ccc(F)cc1F	3.63
Cc1ncsc1C(=O)NC1CCN(CCC(N)=O)CC1	4.69

Q. Provide Percent Effect value for the following compound: O=C(NCCCN1CCOCC1)c1cc(-c2ccc3c(c2)CCO3)n[nH]1
A. -4.93

Q. Provide Percent Effect value for the following compound: CC1c2ncc(CN3CCN(C)CC3)n2CCN1CC1CC1 (stereo not given)
A. -3.72

Q. Provide Percent Effect value for the following compound: CCCN(CCO)C(=O)C1CCC(=O)N(CCc2ccc(Cl)cc2)C1 (stereo not given)
A. -9.44

Q. Provide Percent Effect value for the following compound: Cc1csc([C@@H]2C[C@@H]3CCN(Cc4cnn(C)c4)C[C@H]3O2)n1
A. -23.4

Q. Provide Percent Effect value for the following compound: CN(Cc1ccc(F)cc1)C(=O)CN1CCCC(Cn2cncn2)C1 (stereo not given)
A. -5.05

Q. Provide Percent Effect value for the following compound: CO[C@@H]1CC[C@@H](N(C)C(=O)COc2ccc(F)cc2)[C@H]1O
A. 9.43

Q. Provide Percent Effect value for the following compound: Cn1ccnc1CN1CCN(CCOc2ccccc2C#N)CC1
A. 18.9

Q. Provide Percent Effect value for the following compound: CN(C)C(=O)N1CCn2nc(CNC(=O)CCC(F)(F)F)cc2C1
A. 15

Q. Provide Percent Effect value for the following compound: O=C(c1ccc(O)cc1)N1CCN(C(=O)c2ccc3c(c2)COC3)CC1
A. -19.9

Q. Provide Percent Effect value for the following compound: CC(=O)N1CC(=O)N(c2ccccc2)CC12CCN(Cc1nccs1)C2 (stereo not given)
A. -3.63

Q. Provide Percent Effect value for the following compound: CN1CCCC1c1cccc(Cc2ccccc2F)n1 (stereo not given)
A. 49.3

Q. Provide Percent Effect value for the following compound: O=C1CCC2(CCCN(C(=O)c3cscn3)C2)CN1CCc1c[nH]cn1 (stereo not given)
A. -31.6

Q. Provide Percent Effect value for the following compound: CCNC(=O)c1ccc(CNCc2c(C)nn(C)c2N(C)C)cc1
A. 2.98

Q. Provide Percent Effect value for the following compound: Cc1cc(C(=O)N2CCCC(c3noc(C)n3)C2)[nH]n1 (stereo not given)
A. 12.9

Q. Provide Percent Effect value for the following compound: CN(C)Cc1nc(C(C)(C)NC(=O)C2CC(=O)N(CC3CC3)C2)no1 (stereo not given)
A. 22.2
